Value source: patent US8476081B2

Form field: pKd (one value per entry).
- systemUnderTest: Human Serum Albumin (HSA) (Homo sapiens, UniProt P02768)
- Sequence (P02768 25-609): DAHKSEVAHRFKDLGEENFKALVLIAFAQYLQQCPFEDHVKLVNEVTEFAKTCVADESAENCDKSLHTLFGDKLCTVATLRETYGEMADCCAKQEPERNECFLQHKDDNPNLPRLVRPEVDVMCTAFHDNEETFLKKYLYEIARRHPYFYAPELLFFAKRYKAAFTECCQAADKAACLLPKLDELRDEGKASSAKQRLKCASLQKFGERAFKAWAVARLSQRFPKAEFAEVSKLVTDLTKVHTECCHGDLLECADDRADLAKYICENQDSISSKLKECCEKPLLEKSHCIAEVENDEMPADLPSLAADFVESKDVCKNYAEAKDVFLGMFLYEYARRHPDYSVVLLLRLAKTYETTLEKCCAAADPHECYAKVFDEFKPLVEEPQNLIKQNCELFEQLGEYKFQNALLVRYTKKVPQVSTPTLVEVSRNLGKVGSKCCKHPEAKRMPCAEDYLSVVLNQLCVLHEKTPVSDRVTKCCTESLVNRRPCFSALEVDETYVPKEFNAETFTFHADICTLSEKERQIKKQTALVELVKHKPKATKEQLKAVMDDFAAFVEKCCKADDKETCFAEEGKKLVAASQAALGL
- protocolDescription: ThermoFluor thermal shift assay with human serum albumin
- settings: Human Albumin (KD), Example 4, Table 3
Please keep in mind that pKd is minus log10 of the molar concentration; only the number is needed.

Would you please look over these solved cases?
{"compound": "CCCNC(=O)NS(=O)(=O)c1ccc(Cl)cc1 [Chlorpropamide, chlorpropamide]", "systemUnderTest": "Human Serum Albumin (HSA) (Homo sapiens, UniProt P02768)", "pKd": 4.46}
{"compound": "C=CC1=C(C)/C(=C/c2[nH]c(Cc3[nH]c(/C=C4\\NC(=O)C(C)=C4C=C)c(C)c3CCC(=O)O)c(CCC(=O)O)c2C)NC1=O [Bilirubin, bilirubin]", "systemUnderTest": "Human Serum Albumin (HSA) (Homo sapiens, UniProt P02768)", "pKd": 4.25}
{"compound": "CC(C(=O)O)c1ccc(-c2ccccc2)c(F)c1 (stereo not shown) [Flurbiprofen, flurbiprofen]", "systemUnderTest": "Human Serum Albumin (HSA) (Homo sapiens, UniProt P02768)", "pKd": 5.68}
{"compound": "CC(C(=O)O)c1ccc2c(c1)[nH]c1ccc(Cl)cc12 (stereo not shown) [Carprofen, carprofen]", "systemUnderTest": "Human Serum Albumin (HSA) (Homo sapiens, UniProt P02768)", "pKd": 5.68}

Given the compound C[C@]12CCC(=O)C=C1C=C[C@@H]1[C@@H]2CC[C@@]2(C)[C@H]1CC[C@@]2(O)CCC(=O)O [Canrenoate, canrenoate] , what is its reported pKd? 4.40

Given the compound CN1C(C(=O)Nc2ccccn2)=C(O)c2sccc2S1(=O)=O [Tenoxicam, tenoxicam] , what is its reported pKd? 4.89

Given the compound c1ccc2c(c1)[nH]c1cnccc12 [Norharmane, norharmane] , what is its reported pKd? 4.75

* * *

- systemUnderTest: Human Serum Albumin (HSA) (Homo sapiens, UniProt P02768)
- protocolDescription: ThermoFluor thermal shift assay with human serum albumin
- settings: Human Albumin (KD)
pKd: −log10 of the molar value.
propertyLabel: pKd

What is its pKd for Human Serum Albumin (HSA) (Homo sapiens, UniProt P02768)? Entry: N[C@@H](Cc1c[nH]c2ccccc12)C(=O)O < 4.20

* * *

- systemUnderTest: Rat Serum Albumin (Rattus norvegicus)
- Construct: The above albumins were prepared using method IV of Cohn et al. (J. Am. Chem. Soc. 69: 1753-1761, 1947) and purified with 1× crystallization; purchased Sigma A-6414
- Sequence (P02770 25-608): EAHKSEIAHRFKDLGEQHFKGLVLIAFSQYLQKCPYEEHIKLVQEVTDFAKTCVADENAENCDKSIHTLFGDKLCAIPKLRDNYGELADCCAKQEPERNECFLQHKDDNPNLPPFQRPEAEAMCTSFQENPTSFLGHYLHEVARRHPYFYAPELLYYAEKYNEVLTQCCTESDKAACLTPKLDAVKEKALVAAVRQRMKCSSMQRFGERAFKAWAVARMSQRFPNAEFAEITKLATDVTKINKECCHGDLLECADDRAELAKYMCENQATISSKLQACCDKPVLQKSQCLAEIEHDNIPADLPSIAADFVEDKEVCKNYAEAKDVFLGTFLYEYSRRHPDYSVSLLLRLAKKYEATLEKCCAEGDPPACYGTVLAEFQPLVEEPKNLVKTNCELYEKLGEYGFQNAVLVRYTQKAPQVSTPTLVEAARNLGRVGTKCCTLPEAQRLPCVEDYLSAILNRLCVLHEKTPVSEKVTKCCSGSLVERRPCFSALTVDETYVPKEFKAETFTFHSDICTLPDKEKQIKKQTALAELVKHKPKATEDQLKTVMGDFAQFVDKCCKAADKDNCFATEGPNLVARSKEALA
- protocolDescription: ThermoFluor thermal shift assay with rat serum albumin
- Format: binding
- settings: Example 4, Table 3
Form field: pKd (one value per entry).
Please keep in mind that pKd is minus log10 of the molar concentration; only the number is needed.

{"molecule": "CCC(Cc1c(I)cc(I)c(O)c1I)C(=O)O (centres unmarked) [Iophenoxate, iophenoxate]", "propertyLabel": "pKd", "resultNumber": 7.32}

Given the molecule CCCNC(=O)NS(=O)(=O)c1ccc(Cl)cc1 [Chlorpropamide, chlorpropamide] , what is its reported pKd? 4.53

Given the molecule CC(C(=O)O)c1ccc(-c2ccccc2)c(F)c1 (centres unmarked) , what is its reported pKd? 5.53

* * *

- systemUnderTest: Mouse Serum Albumin (Mus musculus, UniProt P07724)
- Construct: The above albumins were prepared using method IV of Cohn et al. (J. Am. Chem. Soc. 69: 1753-1761, 1947) and purified with 1× crystallization; purchased Sigma A-3559
- Sequence (P07724 25-608): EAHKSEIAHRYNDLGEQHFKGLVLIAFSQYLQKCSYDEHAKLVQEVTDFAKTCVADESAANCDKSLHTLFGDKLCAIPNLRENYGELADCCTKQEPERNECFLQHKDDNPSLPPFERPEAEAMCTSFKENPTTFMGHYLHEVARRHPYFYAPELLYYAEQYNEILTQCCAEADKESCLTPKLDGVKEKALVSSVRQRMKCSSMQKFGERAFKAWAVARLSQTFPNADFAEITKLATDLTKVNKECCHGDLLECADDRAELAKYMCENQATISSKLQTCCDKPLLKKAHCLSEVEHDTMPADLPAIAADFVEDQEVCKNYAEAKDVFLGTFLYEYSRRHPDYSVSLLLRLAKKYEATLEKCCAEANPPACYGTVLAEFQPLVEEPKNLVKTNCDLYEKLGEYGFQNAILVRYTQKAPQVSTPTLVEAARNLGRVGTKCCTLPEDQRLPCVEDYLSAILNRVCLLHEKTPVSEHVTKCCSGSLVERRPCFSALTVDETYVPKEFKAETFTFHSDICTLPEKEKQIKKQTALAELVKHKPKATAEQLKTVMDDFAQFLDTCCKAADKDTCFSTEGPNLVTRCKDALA
- protocolDescription: ThermoFluor thermal shift assay with mouse serum albumin
- Format: binding
pKd: −log10 of the molar value.
propertyLabel: pKd

Given the compound N[C@@H](Cc1c[nH]c2ccccc12)C(=O)O [L-Tryptophan, L-tryptophan] , what is its reported pKd? < 4.20
